Assay: Growth inhibition test of rat L6 cells
Format: cell-based
Conditions: L6 cells (rat skeletal myoblast), Alamar Blue (Table 3), read-out: 50% growth inhibiting concentration Cytotoxicity L6
Measured attribute: EC50 at 72 h

The compound listed as CCC[n+]1c(/C=c2\s/c(=C\C=C3/SCCN3CC)c(=O)n2CC)sc2c3ccccc3ccc21 shows EC50 at 72 h equal to 940 nM

---

Assay: Growth inhibition test of rat L6 cells
Type: cell-based
Conditions: L6 cells (rat skeletal myoblast), Alamar Blue (Table 2), read-out: 50% growth inhibition concentration Cytotoxicity L6
Experimental: Rat derived-L6 cells (rat skeletal myoblast cell) were used. As medium, RPMI1640 medium was supplemented so that L-glutamin (200 mM) is 1%, and fetal bovine serum 10%, and the medium was cultured under CO2 concentration 5%, at 37° C. […] 10 μl of Alamar Blue aqueous solution was added to each well, and the resultant was further cultured for 2 hours. […] Fluorescent intensity was measured at 588 nm, and residual rate of L6 cells of the test solution added group, and that of the control was calculated. […]
Measured attribute: EC50 at 72 h (µM)
Answers are plain numbers, in µM.

Known results for compounds:
>  <Smiles record>
CCn1c(=O)/c(=C/C=C2\Sc3ccccc3N2C)s/c1=C\c1cccc[n+]1CCO

>  <EC50 at 72 h / µM>
42

$$$$
>  <Smiles record>
CCN1/C(=C/C=c2\s/c(=C\c3sc4c5ccccc5ccc4[n+]3CC)n(CC)c2=O)Sc2ccc3ccccc3c21

>  <EC50 at 72 h / µM>
30

$$$$

The compound listed as CCN1C(C)=CS/C1=C\C=c1/s/c(=C\c2sc3ccccc3[n+]2CC)n(CC)c1=O shows EC50 at 72 h equal to 22

Values were extracted from patent US8193224B2.
